Measured pIC50 on UniProt:Q16539 follows.
// scale note: pIC50 = -log10(conc_M); give the bare number

Example results:
# given-smiles, data-value
rows = [
    ("Clc1cccc(-c2nc3cccccc-3c2-c2ccncc2)c1", 5.85),
    ("Cc1ccc(-c2nc3cccccc-3c2-c2ccncc2)cc1", 6.58),
    ("CNc1nccc(-c2c3cccccc-3nc2-c2ccc(F)cc2)n1", 5.77),
    ("CNc1nccc(-c2c3cccccc-3nc2-c2cccc(C(F)(F)F)c2)n1", 6.17),
    ("Fc1ccc(-c2nc3cccccc-3c2-c2ccnc(F)c2)cc1", 5.81),
]

Proceeding to the next molecule to report its pIC50.
The recorded pIC50 for Fc1cc(-c2c3cccccc-3nc2-c2cccc(Cl)c2)ccn1 is 6.02

* * *

Target: MAPK14 (human) (UniProt Q16539)
Sequence (Q16539 whole entry, looked up): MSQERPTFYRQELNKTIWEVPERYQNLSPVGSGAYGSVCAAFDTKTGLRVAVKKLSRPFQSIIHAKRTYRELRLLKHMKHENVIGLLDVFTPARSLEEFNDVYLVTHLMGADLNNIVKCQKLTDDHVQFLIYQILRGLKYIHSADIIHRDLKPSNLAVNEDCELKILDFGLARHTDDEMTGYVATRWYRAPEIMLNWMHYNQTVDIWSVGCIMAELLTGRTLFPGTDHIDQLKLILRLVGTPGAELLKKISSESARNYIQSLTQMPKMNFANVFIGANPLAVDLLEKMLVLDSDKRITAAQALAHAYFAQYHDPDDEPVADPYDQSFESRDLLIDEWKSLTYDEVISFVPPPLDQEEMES
Overview of reported pIC50 across a group of compounds:
// scale note: pIC50 = -log10(conc_M); give the bare number

Example results:
# given-smiles, pIC50
rows = [
    ("CNc1nccc(-c2c3cccccc-3nc2-c2ccc(F)cc2)n1", 4.77),
    ("Fc1ccc(-c2nc3cccccc-3c2-c2ccnc(F)c2)cc1", 5.48),
    ("Clc1cccc(-c2nc3cccccc-3c2-c2ccncc2)c1", 5.30),
]

Proceeding to the next compound to report its pIC50.
Hey, MAPK14 (human) (UniProt Q16539) data for Fc1cc(-c2c3cccccc-3nc2-c2cccc(C(F)(F)F)c2)ccn1 : pIC50 came out at 4.92
